Data provenance: the supplement of paper PMC10567573

B1: RAB40B (parent)
chain: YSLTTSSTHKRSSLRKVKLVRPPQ

# Variants of: B1
# protocol_notes: protein stability index of a GFP-peptide fusion (GPS, HEK-293T) (PSI 1-6); higher = more stable;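 further: lentivirally expressed fusions sorted by FACS into six bins by GFP to DsRed ratio, PSI derived from sequencing read proportions per bin multiplied by bin number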
# study_conditions: c terminus: a fixed tail appended
# binarize protein stability index: threshold 3 inclusive, high side Yes, low side No

Here are 5 variants together with their reported answers.
Record `Q24A` ; criterion: protein stability index no lower than 3. Met?
No

Could you do the same for `R11G` , please?
No

Could you do the same for `T5Q` , please?
Yes

Could you do the same for `K18I` , please?
No

Could you do the same for `T8V` , please?
No

***
Record `T5D` ; criterion: protein stability index no lower than 3. Met?
Yes

Could you do the same for `K10R` , please?
Yes

Could you do the same for `S2Q` , please?
No

Could you do the same for `Y1K` , please?
Yes

Could you do the same for `P23A` , please?
Yes

Could you do the same for `Y1A` , please?
Yes

Could you do the same for `L14V` , please?
Yes

Could you do the same for `S13P` , please?
Yes

Could you do the same for `S12V` , please?
No

Could you do the same for `L3E` , please?
Yes

Could you do the same for `V20A` , please?
Yes

Could you do the same for `K18E` , please?
Yes

Could you do the same for `L14K` , please?
Yes

Could you do the same for `S12G` , please?
Yes

Could you do the same for `S6E` , please?
Yes

Could you do the same for `K18V` , please?
No
